# MEASURED ON: UniProtKB Q13191
# METHOD DESCRIPTION: Inhibition of N-terminal Avi-tagged human CBL-B (36 to 427 residues) incubated with 60 nM Src kinase for 1.5 hrs followed by incubation with fluorescently labeled UbcH5B-Ub for 1 hr and measured by TR-FRET assay
# Type: single protein
This section presents compounds with their documented IC50 values.

CN1CCN(Cc2cc3c(c(C(F)(F)F)c2)CN(c2cccc(C4(Cc5nncn5C)COC4)c2)C3=O)CC1 ... < 100 nM
C[C@H]1CN(C)CCN1c1cc2c(c(C(F)(F)F)c1)CN(c1cccc(C3(Cc4nncn4C)COC3)c1)C2=O ... < 100 nM

Q: Checklist item: IC50 tested on UniProtKB Q13191, entry C[C@@H](Sc1nncn1C)c1ccc(F)c(N2Cc3c(cccc3C(F)(F)F)C2=O)c1 , value?
Result: > 10000 nM

###

# METHOD DESCRIPTION: Induction of anti-CD3/CD28 antibodies-stimulated human T cell activation at 1 uM assessed fold increase in CD25 expression measured by ELISA assay
# Format: functional, T cell line
Each item that follows carries a reported fold change (FC).
// no unit string in output, number only

# count of solved cases: 3
C[C@H](Cc1nncn1C)c1cccc(NC(=O)c2cc(C(=O)N3CC[C@H](O)C3)cc(C(F)(F)F)n2)c1 ... 1.51
C[C@H](Cc1nncn1C)c1cccc(NC(=O)c2cc(C(=O)N3C[C@@H](O)C[C@H]3C)ccn2)c1 ... 1.01
Cn1cnnc1[C@@H](F)C1(c2cccc(N3Cc4c(cc(CN5CCC6(CC6)C5)cc4C(F)(F)F)C3=O)c2)COC1 ... 1.31

Q: Look up fold change (FC) for this molecule: C[C@H](Cc1nncn1C)c1cccc(NC(=O)c2cc(C(C)(C)O)c(Cl)cn2)c1
Result: 1.31

Q: Quick one: fold change (FC) for Cn1cnnc1C(F)(F)[C@](C)(F)c1cccc(N2Cc3c(cc(CN4CC(C(F)F)C4)cc3C(F)(F)F)C2=O)c1 ?
Result: 1.31

Q: Need fold change (FC) of Cn1cnnc1CC1(c2cccc(N3Cc4c(cccc4C(F)(F)F)C3=O)c2)CC1 , thanks.
Result: 1.01

Q: Fill in the blank: the reported fold change (FC) of C[C@H](Sc1nncn1C)c1cccc(NC(=O)c2ccnc(C(F)(F)F)n2)c1 is ____.
Result: 1.01

Q: Quick check: fold change (FC) of C[C@@H](c1cc2c(c(C(F)(F)F)c1)CN(c1cccc(C3(Cc4nncn4C)COC3)c1)C2=O)N1CCC2(CC1)CC2 ?
Result: 1.01

Q: Fill in the blank: the reported fold change (FC) of Cn1cnnc1CC1(c2cccc(N3Cc4c(cc(CN5CC[C@H](F)C5)cc4C(F)(F)F)C3=O)c2)COC1 is ____.
Result: 1.51

Q: Give the measured fold change (FC) of Cn1cnnc1CC1(c2cccc(NC(=O)c3cc(CN4C[C@@H]5[C@H](C4)C5(F)F)cc(C4CC4)n3)c2)COC1 .
Result: 1.31

###

# METHOD DESCRIPTION: Induction of anti-CD3 antibodies-stimulated human CD8+ T cell activation in immunocompetent mouse assessed fold increase in CD25 expression at 90 mg/kg, ip administered thrice a day; note: reference of the scale not given here
# Format: functional
QUANTITY: fold change (FC)
The answer should be written as a number, with no unit following it.

The cases that follow already have their fold change (FC) on record.
C[C@H](c1cc2c(c(C(F)(F)F)c1)CN(c1cccc(C3(Cc4nncn4C)COC3)c1)C2=O)N1CC[C@H](F)C1 ... 1
Cn1cnnc1[C@@H]1C[C@@H]1c1cccc(N2Cc3c(cccc3C(F)(F)F)C2=O)c1 ... 1
Cc1cc(C(=O)Nc2cccc(C3(Cc4nncn4C)COC3)c2)nc(C2CC2)n1 ... 1

Q: // lookup fold change (FC) for C[C@H](Sc1nncn1C)c1cccc(NC(=O)c2cccc(C(F)(F)F)n2)c1
Result: 1.51

###

# METHOD DESCRIPTION: Induction of anti-CD3/CD28 antibodies-stimulated human T cell activation at 1 uM assessed fold increase in CD25 expression measured by ELISA assay
# Format: functional, T cell line
QUANTITY: fold change (FC)

C[C@H](Sc1nncn1C)c1cccc(NC(=O)c2cccc(C(F)(F)F)n2)c1 ... 1.31
C[C@H](Cc1nncn1C)c1cccc(NC(=O)c2cc(C3CC3)cc(C(F)(F)F)n2)c1 ... 1.51
Cc1cc(C(=O)Nc2cccc([C@]3(Cc4nncn4C)CCOC3)c2)nc(C2CC2)n1 (single isomer, unassigned) ... 1.01
C[C@H](c1cc2c(c(C(F)(F)F)c1)CN(c1cccc(C3(Cc4nncn4C)COC3)c1)C2=O)N1CCC(C)(F)CC1 ... >=1.76
CC(c1cc2c(c(C3CC3)n1)CN(c1cccc(C3(Cc4nncn4C)COC3)c1)C2=O)N1CCCCC1 (stereo not drawn) ... >=1.76
C[C@H](Sc1nncn1C)c1ccnc(N2Cc3c(cccc3C(F)(F)F)C2=O)c1 ... <=1
CC[C@@H](c1cc2c(c(C(F)(F)F)c1)CN(c1cccc(C3(Cc4nncn4C)COC3)c1)C2=O)N1CC[C@H](F)C1 ... 1.51

Turning to the following compound.
Q: # get_value(readout='fold change (FC)', item= CN1CC[C@@H](O)[C@H](Cc2cc3c(c(C(F)(F)F)c2)CN(c2cccc(C4(Cc5nncn5C)COC4)c2)C3=O)C1 (relative stereo) )
Result: 1.01

###

fold change (FC) values, listed per item
# METHOD DESCRIPTION: Induction of anti-CD3/CD28 antibodies-stimulated human T cell activation at 4 uM assessed fold increase in CD25 expression measured by ELISA assay
# Type: functional, T cell line
Lab note: record just the number, no unit beside it.

Sample records with fold change (FC):
CCOc1cc([C@H](C)Cc2nncn2C)cc(N2Cc3c(cccc3C(F)(F)F)C2=O)n1 ... 1.31
C[C@H](Sc1nncn1C)c1cccc(NC(=O)c2cccc(C3CC3)n2)c1 ... 1.51
C[C@H](Cc1nncn1C)c1cccc(N2Cc3c(Br)cccc3C2=O)c1 ... 1.51

Q: // lookup fold change (FC) for Cn1cnnc1C(F)(F)[C@@](C)(F)c1cccc(N2Cc3c(cc(CN4CC[C@H](F)C4)cc3C(F)(F)F)C2=O)c1
Result: 1.01

Q: Requested read-out: fold change (FC). Entry: C[C@H](Cc1nncn1C)c1cccc(N2Cc3c(cc([C@H]4CCCNC4)cc3C(F)(F)F)C2=O)c1 (single isomer, unassigned)
Result: 1.51

###

# METHOD DESCRIPTION: Induction of anti-CD3 antibodies-stimulated human CD8+ T cell activation at 10 uM assessed fold increase in CD69 expression measured by flow cytometry analysis; note: reference of the scale not given here
# Assay type: functional, T cell line
Item-by-item account of fold change (FC)
Returns: the value as a bare number; no unit string appended.

C[C@H](Cc1nncn1C)c1cccc(NC(=O)c2nc(C(F)(F)F)c[nH]2)c1 ... 1.201
C[C@H](Cc1nncn1C)c1cccc(N2Cc3c(cc(CN4CC[C@H](F)C4)cc3C(F)(F)F)C2=O)c1 ... 1.401

Continue with the next compound.
Q: Reported fold change (FC) for Cn1cnnc1C(F)(F)C(C)(F)c1cccc(N2Cc3c(cc(CN4CC[C@@H](F)C4)cc3C(F)(F)F)C2=O)c1 (single isomer, unassigned) : what is it?
Result: 1.401

###

# MEASURED ON: E3 ubiquitin-protein ligase CBL-B (Homo sapiens, UniProt Q13191)
# Sequence (Q13191 whole entry, the tested form may be a part): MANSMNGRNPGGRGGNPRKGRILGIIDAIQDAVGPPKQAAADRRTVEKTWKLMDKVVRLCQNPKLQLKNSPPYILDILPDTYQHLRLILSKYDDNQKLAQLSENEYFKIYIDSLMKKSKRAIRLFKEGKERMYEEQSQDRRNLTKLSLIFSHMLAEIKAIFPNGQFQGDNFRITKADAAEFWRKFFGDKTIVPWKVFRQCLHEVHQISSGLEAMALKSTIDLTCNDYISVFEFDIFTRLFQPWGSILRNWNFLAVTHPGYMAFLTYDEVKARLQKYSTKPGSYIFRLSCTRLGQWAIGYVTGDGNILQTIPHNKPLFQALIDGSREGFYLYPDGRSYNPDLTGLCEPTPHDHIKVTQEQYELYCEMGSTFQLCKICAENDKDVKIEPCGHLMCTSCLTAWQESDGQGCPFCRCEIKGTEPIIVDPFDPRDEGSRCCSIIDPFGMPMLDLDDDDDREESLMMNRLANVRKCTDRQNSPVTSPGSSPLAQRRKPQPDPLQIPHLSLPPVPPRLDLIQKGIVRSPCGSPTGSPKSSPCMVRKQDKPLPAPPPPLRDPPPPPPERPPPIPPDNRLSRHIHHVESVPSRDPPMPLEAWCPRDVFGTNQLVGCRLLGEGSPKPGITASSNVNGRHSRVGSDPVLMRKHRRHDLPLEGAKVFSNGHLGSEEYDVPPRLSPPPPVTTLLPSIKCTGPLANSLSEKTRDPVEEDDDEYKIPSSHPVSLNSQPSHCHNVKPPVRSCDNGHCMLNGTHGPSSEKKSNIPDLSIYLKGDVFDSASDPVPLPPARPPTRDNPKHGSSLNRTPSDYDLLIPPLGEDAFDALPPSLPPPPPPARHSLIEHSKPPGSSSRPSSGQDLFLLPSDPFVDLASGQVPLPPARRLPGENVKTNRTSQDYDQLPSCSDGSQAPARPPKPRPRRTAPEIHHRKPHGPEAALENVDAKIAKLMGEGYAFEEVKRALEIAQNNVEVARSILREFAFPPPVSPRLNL
# METHOD DESCRIPTION: Binding affinity towards N-terminal biotinylated Avi-tagged human CBL-B (36 to 427 residues) measured by surface plasmon resonance assay
List of Kd values.

Would you please look over these solved cases?
C[C@H](Sc1nncn1C)c1cccc(NC(=O)c2cc(C(=O)N3C[C@@H](O)C[C@@H]3C)ccn2)c1 ... > 10000 nM
Cn1cnnc1CC1(c2cccc(N3Cc4c(cc(CN5CC[C@H](F)C5)cc4C4CC4)C3=O)c2)COC1 ... < 100 nM
C[C@H](Cc1nncn1C)c1cccc(NC(=O)c2cc3cc(N4CCNCC4)ccc3cn2)c1.Cl ... < 100 nM

Q: Given Cn1cnnc1CC1(c2cccc(NC(=O)c3nc4c(C(F)(F)F)cccc4[nH]3)c2)COC1 , state its recorded Kd.
Result: < 100 nM

Q: GET /values?readout=Kd&item= C[C@H](Sc1nncn1C)c1ccnc(NC(=O)c2cc(C(F)(F)F)c(Cl)cn2)c1
Result: > 10000 nM

Q: Using the record for C[C@@H](Sc1nncn1C)c1cccc(NC(=O)c2ccc3ccccc3n2)c1 , report its Kd.
Result: ≥ 3000 nM

Q: GET /values?readout=Kd&item= C[C@H](Sc1nncn1C)c1cccc(NC(=O)c2cc(C(=O)N3CCC[C@@H](O)C3)ccn2)c1
Result: > 10000 nM

Q: What does the data say about its Kd? Entry: Cn1cnnc1C(F)(F)[C@](C)(F)c1cccc(N2Cc3c(cc(CN4CC[C@@H](S(C)(=O)=O)C4)cc3C(F)(F)F)C2=O)c1
Result: < 100 nM

Q: Param item = Cc1conc1C[C@@H](C)c1cccc(N2Cc3c(cc(C(=O)N4CC[C@H](O)C4)cc3C(F)(F)F)C2=O)c1 ; retrieve measured Kd.
Result: < 100 nM

Q: Find the recorded Kd belonging to C[C@@H](Sc1nncn1C)c1ccc(F)c(NC(=O)c2cccc(C(F)(F)F)n2)c1 and report it.
Result: > 10000 nM

Q: Report Kd for C[C@H](Cc1nncn1C)c1cccc(N2Cc3c(cc(CN4CC[C@](C)(O)C4)cc3C(F)(F)F)C2=O)c1 please.
Result: < 100 nM

Data provenance: ChEMBL document CHEMBL5050844
